tested on: Acinetobacter baumannii
Positions of bridges follow the written chain, without caps; N, C: chain ends. Non-standard residues stand in square brackets, D forms with d. Residues, ends and D or L forms follow the SMILES beside them. *: point of attachment. Benzoyl(3-CF3) = O=C(c1cccc(C(F)(F)F)c1)*; Heptanoyl(6-Me) = CC(C)CCCCC(=O)*; dNle = CCCC[C@@H](N)C(=O)O; X31 = O=C(c1ccc(Cl)cc1F)*; Octanoyl = CCCCCCCC(=O)*; Orn = NCCC[C@H](N)C(=O)O; Dab = NCC[C@H](N)C(=O)O; Abu = CC[C@H](N)C(=O)O; Dap = NC[C@H](N)C(=O)O
# binarize Minimum inhibitory concentration, Ab A ATCC 17978: threshold 0.5 µg/mL inclusive, high side satisfied, low side not satisfied

Given CCCC[C@H]1NC(=O)[C@H](CCN)NC(=O)[C@@H](NC(=O)[C@H](CN)NC(=O)[C@@H](NC(=O)[C@H](CCN)NC(=O)c2cccc(C(F)(F)F)c2)[C@@H](C)O)CCNC(=O)[C@H]([C@@H](C)O)NC(=O)[C@H](CCN)NC(=O)[C@H](CCN)NC(=O)[C@H]([C@@H](C)O)NC1=O [Compound 123] ({Benzoyl(3-CF3)}-[Dab]T[Dap][Dab][Dab][dNle]T[Dab][Dab]T; lactam 4-C) , state whether its Minimum inhibitory concentration, Ab A ATCC 17978 is at least 0.5 µg/mL.
satisfied

Does the compound CC[C@@H]1NC(=O)[C@@H](CC(C)C)NC(=O)[C@H](CCN)NC(=O)[C@@H](NC(=O)[C@H](CN)NC(=O)[C@@H](NC(=O)[C@H](CCN)NC(=O)CCCCC(C)C)[C@@H](C)O)CCNC(=O)[C@H]([C@@H](C)O)NC(=O)[C@H](CCN)NC(=O)[C@H](CCN)NC1=O [Compound 66] ({Heptanoyl(6-Me)}-[Dab]T[Dap][Dab][Dab][dL][Abu][Dab][Dab]T; lactam 4-C) have recorded Minimum inhibitory concentration, Ab A ATCC 17978 that is 0.5 µg/mL or more?
not satisfied

Is Minimum inhibitory concentration, Ab A ATCC 17978 at least 0.5 µg/mL? Consider CC[C@@H]1NC(=O)[C@@H](CC(C)C)NC(=O)[C@H](CCN)NC(=O)[C@@H](NC(=O)[C@H](CN)NC(=O)[C@@H](NC(=O)[C@H](CCN)NC(=O)c2ccc(Cl)cc2F)[C@@H](C)O)CCNC(=O)[C@H]([C@@H](C)O)NC(=O)[C@H](CCN)NC(=O)[C@H](CCN)NC1=O [Compound 134] (X31-[Dab]T[Dap][Dab][Dab][dL][Abu][Dab][Dab]T; lactam 4-C)
satisfied

Does Minimum inhibitory concentration, Ab A ATCC 17978 meet or surpass 0.5 µg/mL for CCCCCCCC(=O)N[C@@H](CCCN)C(=O)N[C@H](C(=O)N[C@@H](CCN)C(=O)N[C@H]1CCNC(=O)[C@H]([C@@H](C)O)NC(=O)[C@H](CCN)NC(=O)[C@H](CCN)NC(=O)[C@H]([C@@H](C)O)NC(=O)[C@@H](CC(C)C)NC(=O)[C@H](CCN)NC1=O)[C@@H](C)O [Compound 32] (Octanoyl-[Orn]T[Dab][Dab][Dab][dL]T[Dab][Dab]T; lactam 4-C) ?
satisfied

hey, is Minimum inhibitory concentration, Ab A ATCC 17978 for this one >= 0.5 µg/mL? CCCCCCCC(=O)N[C@@H](CCN)C(=O)N[C@H](C(=O)N[C@H](CO)C(=O)N[C@H]1CCNC(=O)[C@H]([C@@H](C)O)NC(=O)[C@H](CCN)NC(=O)[C@H](CCN)NC(=O)[C@H](C(C)C)NC(=O)[C@@H](CC(C)C)NC(=O)[C@H](CCN)NC1=O)[C@@H](C)O [Compound 5] (Octanoyl-[Dab]T[dS][Dab][Dab][dL]V[Dab][Dab]T; lactam 4-C)
not satisfied

Would you say CCCCCCCC(=O)N[C@@H](CCCN)C(=O)N[C@H](C(=O)N[C@H](CO)C(=O)N[C@H]1CCNC(=O)[C@H]([C@@H](C)O)NC(=O)[C@H](CCN)NC(=O)[C@H](CCN)NC(=O)[C@H]([C@@H](C)O)NC(=O)[C@@H](CC(C)C)NC(=O)[C@H](CCN)NC1=O)[C@@H](C)O [Compound 14] (Octanoyl-[Orn]T[dS][Dab][Dab][dL]T[Dab][Dab]T; lactam 4-C) shows Minimum inhibitory concentration, Ab A ATCC 17978 at minimum 0.5 µg/mL?
satisfied

State whether the measured Minimum inhibitory concentration, Ab A ATCC 17978 reaches 0.5 µg/mL, counting equality as reaching it, for C[C@@H](O)[C@@H]1NC(=O)[C@H](CCN)NC(=O)[C@H](CCN)NC(=O)[C@H]([C@@H](C)O)NC(=O)[C@@H](Cc2ccccc2)NC(=O)[C@H](CCN)NC(=O)[C@@H](NC(=O)[C@H](CN)NC(=O)[C@@H](NC(=O)[C@H](CCN)NC(=O)c2cccc(C(F)(F)F)c2)[C@@H](C)O)CCNC1=O [Compound 124] ({Benzoyl(3-CF3)}-[Dab]T[Dap][Dab][Dab][dF]T[Dab][Dab]T; lactam 4-C)
satisfied

* * *

system: Enterobacter cloacae
Positions of bridges follow the written chain, without caps; N, C: chain ends. Non-standard residues stand in square brackets, D forms with d. Residues, ends and D or L forms follow the SMILES beside them. *: point of attachment. Benzoyl(4-CF3) = O=C(c1ccc(C(F)(F)F)cc1)*; X36 = O=C(c1cc(C(F)(F)F)cc(C(F)(F)F)c1)*; Phenylacetyl(4-Me) = Cc1ccc(CC(=O)*)cc1; X13 = O=C(Cc1ccc(Cl)cc1Cl)*; Decanoyl = CCCCCCCCCC(=O)*; dNle = CCCC[C@@H](N)C(=O)O; dNva = CCC[C@@H](N)C(=O)O; Heptanoyl = CCCCCCC(=O)*; Octanoyl = CCCCCCCC(=O)*; Orn = NCCC[C@H](N)C(=O)O; Dab = NCC[C@H](N)C(=O)O; X43 = O=C(c1cccc(F)c1)*; Abu = CC[C@H](N)C(=O)O; Dap = NC[C@H](N)C(=O)O
quantity.name: Minimum inhibitory concentration, Ec FADDI-EC003

Data point: CC[C@@H]1NC(=O)[C@@H](CC(C)C)NC(=O)[C@H](CCN)NC(=O)[C@@H](NC(=O)[C@H](CN)NC(=O)[C@@H](NC(=O)[C@H](CCN)NC(=O)c2cccc(F)c2)[C@@H](C)O)CCNC(=O)[C@H]([C@@H](C)O)NC(=O)[C@H](CCN)NC(=O)[C@H](CCN)NC1=O [Compound 86] (X43-[Dab]T[Dap][Dab][Dab][dL][Abu][Dab][Dab]T; lactam 4-C) ; Minimum inhibitory concentration, Ec FADDI-EC003 = 1 mg/L

So, CC(C)C[C@H]1NC(=O)[C@H](CCN)NC(=O)[C@@H](NC(=O)[C@H](CN)NC(=O)[C@@H](NC(=O)[C@H](CCN)NC(=O)Cc2ccc(Cl)cc2Cl)[C@@H](C)O)CCNC(=O)[C@H]([C@@H](C)O)NC(=O)[C@H](CCN)NC(=O)[C@H](CCN)NC(=O)[C@H]([C@@H](C)O)NC1=O [Compound 62] (X13-[Dab]T[Dap][Dab][Dab][dL]T[Dab][Dab]T; lactam 4-C) ? Its Minimum inhibitory concentration, Ec FADDI-EC003 was <0.125 mg/L

// Minimum inhibitory concentration, Ec FADDI-EC003 value for CCCCCCCC(=O)N[C@@H](CCN)C(=O)N[C@H](C(=O)N[C@@H](CCN)C(=O)N[C@H]1CCNC(=O)[C@H]([C@@H](C)O)NC(=O)[C@H](CCN)NC(=O)[C@H](CCN)NC(=O)[C@H]([C@@H](C)O)NC(=O)[C@@H](CCCC)NC(=O)[C@H](CCN)NC1=O)[C@@H](C)O [Compound 24] (Octanoyl-[Dab]T[Dab][Dab][Dab][dNle]T[Dab][Dab]T; lactam 4-C) : <0.125 mg/L

get_value(item= CCCCCCC(=O)N[C@@H](CCN)C(=O)N[C@H](C(=O)N[C@H](CO)C(=O)N[C@H]1CCNC(=O)[C@H]([C@@H](C)O)NC(=O)[C@H](CCN)NC(=O)[C@H](CCN)NC(=O)[C@H]([C@@H](C)O)NC(=O)[C@@H](CC(C)C)NC(=O)[C@H](CCN)NC1=O)[C@@H](C)O [Compound 16] (Heptanoyl-[Dab]T[dS][Dab][Dab][dL]T[Dab][Dab]T; lactam 4-C) , readout=Minimum inhibitory concentration, Ec FADDI-EC003) returns 0.25 mg/L

The value of Minimum inhibitory concentration, Ec FADDI-EC003 measured for the molecule CC[C@@H]1NC(=O)[C@@H](CC(C)C)NC(=O)[C@H](CCN)NC(=O)[C@@H](NC(=O)[C@H](CN)NC(=O)[C@@H](NC(=O)[C@H](CCN)NC(=O)c2ccc(C(F)(F)F)cc2)[C@@H](C)O)CCNC(=O)[C@H]([C@@H](C)O)NC(=O)[C@H](CCN)NC(=O)[C@H](CCN)NC1=O [Compound 74] ({Benzoyl(4-CF3)}-[Dab]T[Dap][Dab][Dab][dL][Abu][Dab][Dab]T; lactam 4-C) turned out to be 0.25 mg/L

GET /value?item= CCCCCCCC(=O)N[C@@H](CCN)C(=O)N[C@H](C(=O)N[C@@H](CN)C(=O)N[C@H]1CCNC(=O)[C@H]([C@@H](C)O)NC(=O)[C@H](CCN)NC(=O)[C@H](CCN)NC(=O)[C@H]([C@@H](C)O)NC(=O)[C@@H](CCC)NC(=O)[C@H](CCN)NC1=O)[C@@H](C)O [Compound 49] (Octanoyl-[Dab]T[Dap][Dab][Dab][dNva]T[Dab][Dab]T; lactam 4-C) &field=Minimum inhibitory concentration, Ec FADDI-EC003 returns 0.5 mg/L

Entry CC[C@@H]1NC(=O)[C@@H](CC(C)C)NC(=O)[C@H](CCN)NC(=O)[C@@H](NC(=O)[C@H](CN)NC(=O)[C@@H](NC(=O)[C@H](CCN)NC(=O)c2cc(C(F)(F)F)cc(C(F)(F)F)c2)[C@@H](C)O)CCNC(=O)[C@H]([C@@H](C)O)NC(=O)[C@H](CCN)NC(=O)[C@H](CCN)NC1=O [Compound 97] (X36-[Dab]T[Dap][Dab][Dab][dL][Abu][Dab][Dab]T; lactam 4-C) — recorded Minimum inhibitory concentration, Ec FADDI-EC003 = 0.25 mg/L

// sample CCCCCCCC(=O)N[C@@H](CCCN)C(=O)N[C@H](C(=O)N[C@@H](CCN)C(=O)N[C@H]1CCNC(=O)[C@H]([C@@H](C)O)NC(=O)[C@H](CCN)NC(=O)[C@H](CCN)NC(=O)[C@H]([C@@H](C)O)NC(=O)[C@@H](CC(C)C)NC(=O)[C@H](CCN)NC1=O)[C@@H](C)O [Compound 32] (Octanoyl-[Orn]T[Dab][Dab][Dab][dL]T[Dab][Dab]T; lactam 4-C) , its Minimum inhibitory concentration, Ec FADDI-EC003 was 1 mg/L

Minimum inhibitory concentration, Ec FADDI-EC003 reading for CCCCCCCC(=O)N[C@@H](CCN)C(=O)N[C@H](C(=O)N[C@H](CO)C(=O)N[C@H]1CCNC(=O)[C@H]([C@@H](C)O)NC(=O)[C@H](CCN)NC(=O)[C@H](CCN)NC(=O)[C@H]([C@@H](C)O)NC(=O)[C@@H](Cc2ccccc2)NC(=O)[C@H](CCN)NC1=O)[C@@H](C)O [Compound 3] (Octanoyl-[Dab]T[dS][Dab][Dab][dF]T[Dab][Dab]T; lactam 4-C) : <0.125 mg/L

Record CC[C@@H]1NC(=O)[C@@H](CC(C)C)NC(=O)[C@H](CCN)NC(=O)[C@@H](NC(=O)[C@H](CN)NC(=O)[C@@H](NC(=O)[C@H](CCN)NC(=O)Cc2ccc(C)cc2)[C@@H](C)O)CCNC(=O)[C@H]([C@@H](C)O)NC(=O)[C@H](CCN)NC(=O)[C@H](CCN)NC1=O [Compound 80] ({Phenylacetyl(4-Me)}-[Dab]T[Dap][Dab][Dab][dL][Abu][Dab][Dab]T; lactam 4-C) . Reported Minimum inhibitory concentration, Ec FADDI-EC003: 0.25 mg/L

The molecule listed as CCCCCCCCCC(=O)N[C@@H](CCN)C(=O)N[C@H](C(=O)N[C@@H](CCN)C(=O)N[C@H]1CCNC(=O)[C@H]([C@@H](C)O)NC(=O)[C@H](CCN)NC(=O)[C@H](CCN)NC(=O)[C@H]([C@@H](C)O)NC(=O)[C@@H](CC(C)C)NC(=O)[C@H](CCN)NC1=O)[C@@H](C)O [Compound 27] (Decanoyl-[Dab]T[Dab][Dab][Dab][dL]T[Dab][Dab]T; lactam 4-C) has a reported Minimum inhibitory concentration, Ec FADDI-EC003 of <0.125 mg/L
